Hey, just so you know, these numbers are from patent US9296760B2.

- SUBJECT OF TEST: S. aureus ATCC 29213 FabI (Staphylococcus aureus)
- Sequence (Q6GI75 1-256): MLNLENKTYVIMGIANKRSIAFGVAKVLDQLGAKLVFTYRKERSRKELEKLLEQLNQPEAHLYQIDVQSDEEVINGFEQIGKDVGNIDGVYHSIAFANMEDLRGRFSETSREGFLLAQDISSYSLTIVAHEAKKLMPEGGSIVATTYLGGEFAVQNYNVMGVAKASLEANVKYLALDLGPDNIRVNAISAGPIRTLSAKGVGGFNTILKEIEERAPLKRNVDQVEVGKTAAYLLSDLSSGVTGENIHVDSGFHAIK
- ASSAY METHOD TEXT: Staphylococcus aureus FabI enzyme inhibition assay
- Assay type: biochemical
- CONDITION SUMMARY: NADH consumption, 30 minutes, read-out: FabI (300.235) IC50 (converted)
IC50 less than 2 µM is t; IC50 greater than or equal to 2 µM is f.

INSERT INTO assay_data (molecule, cat) VALUES
  ('O=C(Nc1ccc(/C=C/C(=O)N2CCC=C(c3ccccc3)CC2)cn1)c1ccoc1', 't'),
  ('COc1ccc(F)cc1C1=CCCN(C(=O)/C=C/c2ccc(NC(=O)c3cccnc3)nc2)CC1', 't'),
  ('CS(=O)(=O)N1CC(=O)Nc2ncc(/C=C/C(=O)N3CCC=C(c4ccccc4)CC3)cc2C1', 't'),
  ('CN1CC(=O)Nc2ncc(/C=C/C(=O)N3CC=C(c4cccs4)CCC3)cc2C1', 'f'),
  ('CC(C)CC(=O)Nc1ccc(/C=C/C(=O)N2CCC=C(c3ccccc3)CC2)cn1', 't'),
  ('CC(C)C(=O)Nc1ccc(/C=C/C(=O)N2CCC=C(c3ccccc3)CC2)cn1', 't'),
  ('O=C1Nc2ncc(/C=C/C(=O)N3CCC=C(c4ccccc4)CC3)cc2CO1', 't'),
  ('Cc1cc(C(=O)Nc2ccc(/C=C/C(=O)N3CCC=C(c4ccccc4)CC3)cn2)no1', 't'),
  ('O=C(/C=C/c1ccc(NC(=O)C(F)(F)F)nc1)N1CCC=C(c2ccccc2)CC1', 't'),
  ('O=C(Nc1ccc(/C=C/C(=O)N2CCC=C(c3ccccc3)CC2)cn1)c1ccccc1', 't'),
  ('O=C1CNCc2cc(/C=C/C(=O)N3CCC=C(c4ccccc4)CC3)cnc2N1 [compound 34]', 't'),
  ('Cn1cc(C(=O)Nc2ccc(/C=C/C(=O)N3CCC=C(c4ccccc4)CC3)cn2)cn1', 't'),
  ('CN1CC(=O)Nc2ncc(/C=C/C(=O)N3CCC=C(c4ccccc4)CC3)cc2C1 [compound 40]', 't'),
  ('CC(=O)N1CC(=O)Nc2ncc(/C=C/C(=O)N3CCC=C(c4ccccc4)CC3)cc2C1', 't'),
  ('O=C1Nc2ncc(/C=C/C(=O)N3CC=C(c4ccccc4)CCC3)cc2CN2CCOCC12 (stereo not shown)', 't'),
  ('Nc1ccc(/C=C/C(=O)N2CCC=C(c3ccccc3)CC2)cn1', 'f'),
  ('Nc1ccc(/C=C/C(=O)N2CC=C(c3ccccc3)CCC2)cn1', 'f'),
  ('Cc1occc1C(=O)Nc1ccc(/C=C/C(=O)N2CCC=C(c3ccccc3)CC2)cn1', 'f'),
  ('Cn1cnc(C(=O)Nc2ccc(/C=C/C(=O)N3CCC=C(c4ccccc4)CC3)cn2)c1', 'f'),
  ('O=C(Nc1ccc(/C=C/C(=O)N2CCC=C(c3ccccc3)CC2)cn1)c1c[nH]cn1', 't'),
  ('O=C(Nc1ccc(/C=C/C(=O)N2CCC=C(c3ccccc3)CC2)cn1)c1cccnc1', 't'),
  ('O=C1Nc2ncc(/C=C/C(=O)N3CCC=C(c4ccccc4)CC3)cc2CN2CCNCC12 (stereo not shown)', 'f'),
  ('O=C(/C=C/c1ccc(Nc2ccccc2)nc1)N1CCC=C(c2ccccc2)CC1', 'f'),
  ('CC(=O)N1CCN2Cc3cc(/C=C/C(=O)N4CCC=C(c5ccccc5)CC4)cnc3NC(=O)C2C1 (stereo not shown)', 't'),
  ('COc1ccc(F)cc1C1=CCCN(C(=O)/C=C/c2ccc(NC(=O)c3cncc(C)c3)nc2)CC1', 't'),
  ('O=C1Nc2ncc(/C=C/C(=O)N3CCC=C(c4ccccc4)CC3)cc2CN2CCOCC12 (stereo not shown)', 't'),
  ('O=C(Nc1ccc(/C=C/C(=O)N2CCC=C(c3ccccc3)CC2)cn1)C1CCCCC1', 'f'),
  ('O=C(Nc1ccc(/C=C/C(=O)N2CCC=C(c3ccccc3)CC2)cn1)c1cnccn1', 't'),
  ('O=C1Nc2ncc(/C=C/C(=O)N3CCC=C(c4ccccc4)CC3)cc2CN2CCSCC12 (stereo not shown)', 't');
